Where do the numbers come from? From paper doi:10.1101/2024.09.13.612887.

test system: F. ulcerans ZTP riboswitch ITC construct RNA (aptamer domain) (RNA, riboswitch) UAUCAGUUAUAUGACUGACGGAACGUGGAAUUAACCACAUGAAGUAUAACGAUGACAAUGCCGACCGUCUGGGCG; assay: ITC; settings: 150 mM KCl, 10 mM MgCl2; 50 mM HEPES-KOH pH 7.4, up to 3% DMSO, 37 °C
Mark MET only when KD stays strictly below 2000 nM. Values equal to the cut-off are NOT MET.

[
  {
    "MOLECULE": "NC(=O)c1ncn(Cc2ccncc2)c1N",
    "CATEGORY": "NOT MET"
  },
  {
    "MOLECULE": "NC(=O)c1ncn(-c2ccc3cc[nH]c3c2)c1N",
    "CATEGORY": "NOT MET"
  },
  {
    "MOLECULE": "NC(=O)c1ncn(-c2ccc(Cl)nc2)c1N",
    "CATEGORY": "NOT MET"
  },
  {
    "MOLECULE": "NC(=O)c1ncn(-c2cnc3cccnc3c2)c1N",
    "CATEGORY": "MET"
  },
  {
    "MOLECULE": "COc1ccc(-n2cnc(C(N)=O)c2N)cn1",
    "CATEGORY": "NOT MET"
  },
  {
    "MOLECULE": "CNc1ccc(-n2cnc(C(N)=O)c2N)cn1",
    "CATEGORY": "NOT MET"
  },
  {
    "MOLECULE": "NC(=O)c1ncn(-c2ccc3[nH]ccc3c2)c1N",
    "CATEGORY": "NOT MET"
  },
  {
    "MOLECULE": "NC(=O)c1cccc(-n2cnc(C(N)=O)c2N)c1",
    "CATEGORY": "NOT MET"
  },
  {
    "MOLECULE": "NC(=O)c1ncn(-c2ccc(-c3ncc[nH]3)nc2)c1N",
    "CATEGORY": "NOT MET"
  },
  {
    "MOLECULE": "NC(=O)c1ncn(-c2ccc(NCc3ccccc3)nc2)c1N",
    "CATEGORY": "NOT MET"
  },
  {
    "MOLECULE": "NC(=O)c1ncn(-c2ccc3cccnc3c2)c1N",
    "CATEGORY": "MET"
  },
  {
    "MOLECULE": "NC(=O)c1ncn(-c2cccc(O)c2)c1N",
    "CATEGORY": "NOT MET"
  },
  {
    "MOLECULE": "NC(=O)c1ncn(-c2cncnc2)c1N",
    "CATEGORY": "MET"
  },
  {
    "MOLECULE": "NC(=O)c1ncn(-c2ccccc2)c1N",
    "CATEGORY": "MET"
  },
  {
    "MOLECULE": "NC(=O)c1ncn(-c2cnc3ncccc3c2)c1N",
    "CATEGORY": "MET"
  },
  {
    "MOLECULE": "NC(=O)c1ncn(-c2ccc3ncccc3c2)c1N",
    "CATEGORY": "MET"
  },
  {
    "MOLECULE": "NC(=O)c1ncn(-c2ccc(-c3cnc[nH]3)cc2)c1N",
    "CATEGORY": "MET"
  }
]
